The measured values listed here are drawn from the supplement of paper PMC3334620.

For each entry below, report its PBM E-score value.
- Tested Target: Gcr1 (UniProt P07261)
- Sequence: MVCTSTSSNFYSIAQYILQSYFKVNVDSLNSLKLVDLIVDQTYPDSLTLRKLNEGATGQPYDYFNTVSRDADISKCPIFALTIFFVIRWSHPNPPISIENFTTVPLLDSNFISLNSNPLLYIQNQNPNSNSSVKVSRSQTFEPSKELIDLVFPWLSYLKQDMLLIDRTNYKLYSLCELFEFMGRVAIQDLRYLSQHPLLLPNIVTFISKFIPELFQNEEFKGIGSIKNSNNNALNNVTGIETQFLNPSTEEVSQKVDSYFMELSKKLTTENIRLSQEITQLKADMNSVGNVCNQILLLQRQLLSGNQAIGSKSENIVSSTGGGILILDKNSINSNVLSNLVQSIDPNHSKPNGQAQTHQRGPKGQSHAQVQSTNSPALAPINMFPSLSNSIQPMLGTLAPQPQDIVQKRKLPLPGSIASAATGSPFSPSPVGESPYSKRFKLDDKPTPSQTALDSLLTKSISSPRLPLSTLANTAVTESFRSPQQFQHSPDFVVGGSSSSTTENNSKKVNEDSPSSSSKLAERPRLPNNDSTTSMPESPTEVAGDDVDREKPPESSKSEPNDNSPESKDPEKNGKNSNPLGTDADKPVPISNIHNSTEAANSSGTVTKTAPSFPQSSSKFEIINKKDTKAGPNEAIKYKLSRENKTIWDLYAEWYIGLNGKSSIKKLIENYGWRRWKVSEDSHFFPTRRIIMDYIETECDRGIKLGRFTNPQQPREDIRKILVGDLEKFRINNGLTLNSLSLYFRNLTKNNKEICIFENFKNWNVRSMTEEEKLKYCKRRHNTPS
- Test: PBM E-score (8-mer binding enrichment) (E-score (-0.5 to 0.5)); higher = stronger / more preferred TF binding
- Measurement Context: protein concentration: 100 nM; construct: GST-full length
Over roughly 33,000 sequences, “E-score (-0.5 to 0.5)” has its median near -0.011; the highest 2% begin near 0.28. The entries come from a sample that favours the highest values as a whole.
One number for each entry.

Residue Codes	Observed Measurement
CCGCGCAG	-0.219
ATGGCGCG	0.116
GCTTCCAA	0.443
AAGGCGGT	0.00689

Hi! Can you tell me PBM E-score for each of these sequences?
1. GCGGAAGA
2. CCAGCGTA
3. GTCGCAAC
4. GATTCCCA

Result:
1: -0.195; 2: -0.178; 3: 0.0865; 4: 0.334

// batch mode: one PBM E-score value per listed entry
1. TACAGGAA
2. ATGCTAAC
3. GTCATTAA
4. ACAAGAAA
5. GTGAGAAC
6. CCACTAAC
7. ACAAGAAG
8. CCACTATC

Result:
[0.394, 0.139, 0.0346, 0.155, -0.0123, 0.21, 0.415, 0.368]

For the 2 sequences below, give their PBM E-score values.
1. ACGGAAGA
2. GTAAAGGA

Result:
0.0748
0.149

Here are 4 sequences. What values of PBM E-score were reported for them?
1. AAATCTGC
2. AGTCAGCG
3. AGGGCTCC
4. CACTTGAG

Result:
1. 0.0369
2. 0.0668
3. 0.143
4. 0.00447
